Measured values drawn from patent US20200223889A1 for this set.

Target: human MC4R (Homo sapiens, UniProt P32245)
Construct: expressed in transfected cells
Sequence (P32245 whole entry): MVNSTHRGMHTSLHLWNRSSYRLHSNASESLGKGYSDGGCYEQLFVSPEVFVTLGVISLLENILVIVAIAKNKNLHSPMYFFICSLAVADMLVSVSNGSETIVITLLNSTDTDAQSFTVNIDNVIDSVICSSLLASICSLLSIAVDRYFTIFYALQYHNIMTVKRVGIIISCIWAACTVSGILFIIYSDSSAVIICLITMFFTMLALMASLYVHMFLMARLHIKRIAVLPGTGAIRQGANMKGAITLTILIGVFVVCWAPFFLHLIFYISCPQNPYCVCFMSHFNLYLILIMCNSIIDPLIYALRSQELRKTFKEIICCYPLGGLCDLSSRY
Assay: Functional cAMP assay (CisBio HTRF) in BHK cells expressing human MC4R
Type: cell-based
Conditions: BHK cells expressing human MC4R; '>' = highest dose used with no response; read-out: MC4R cAMP EC50
Method: In order to assess the potency of the compounds on human MC1R and human MC4R cAMP signalling was measured. cAMP induction was measured by c-AMPdynamic2 assay, HTRF 62AM4PEC system from CisBio for the human MC1R and human MC4R according to the protocol provided by the vendor. BHK cells expressing the human MC1 or MC4 receptor were generated by stable transfection with expression vectors encoding the cDNA of either MC1R or MC4R. […]
Positions of bridges follow the written chain, without caps; N, C: chain ends. Non-standard residues stand in square brackets, D forms with d. Residues, ends and D or L forms follow the SMILES beside them. Ser(ΨH,HPro) = O=C(O)[C@@H]1COCN1; Aib = CC(C)(N)C(=O)O
measured_attribute: EC50 (nM)
State just the number; it will be interpreted in nM.

Field: example entries. Status: answers known.
molecule | EC50 (nM)
CC1(C)NC(=O)[C@@H]2CSSC[C@H](NC(=O)[C@H](Cc3c[nH]c4ccccc34)NC(=O)[C@H](CCCCN)NC(=O)[C@@H](Cc3ccccc3)NC(=O)[C@H](Cc3c[nH]cn3)NC1=O)C(=O)NC(C)(C)C(=O)N[C@@H](Cc1c[nH]cn1)C(=O)N[C@H](Cc1ccccc1)C(=O)N[C@@H](CCCCN)C(=O)N[C@@H](Cc1c[nH]c3ccccc13)C(=O)N2 [Chem. 40] (cyclo([Aib]H[dF]KWC[Aib]H[dF]KWC); disulfide 6-12) | 0.29
C[C@@H]1NC(=O)[C@@H]2CSSC[C@H](NC(=O)[C@H](Cc3c[nH]c4ccccc34)NC(=O)[C@H](CCCCN)NC(=O)[C@H](CCCCN)NC(=O)[C@H](CCCCN)NC1=O)C(=O)N1COC[C@H]1C(=O)N[C@@H](Cc1c[nH]cn1)C(=O)N[C@H](Cc1ccccc1)C(=O)N[C@@H](Cc1c[nH]cn1)C(=O)N[C@@H](Cc1c[nH]c3ccccc13)C(=O)N2 [Chem. 103] (cyclo(AKKKWC[Ser(ΨH,HPro)]H[dF]HWC); disulfide 6-12) | 0.05

// next entry
Q: Value wanted: EC50 (human MC4R (Homo sapiens, UniProt P32245)) of entry C[C@@H]1NC(=O)[C@@H]2CSSC[C@H](NC(=O)[C@H](CCCNC(=N)N)NC(=O)[C@H](CCCCN)NC(=O)[C@H](CCCCN)NC(=O)[C@H](CCCCN)NC1=O)C(=O)N[C@H](C)C(=O)N[C@@H](Cc1c[nH]cn1)C(=O)N[C@H](Cc1ccccc1)C(=O)N[C@@H](CCCNC(=N)N)C(=O)N[C@@H](Cc1c[nH]c3ccccc13)C(=O)N2 [Chem. 85] (cyclo(AKKKRC[dA]H[dF]RWC); disulfide 6-12)
Ans: 0.01

* * *

biological target: human MC4R (Homo sapiens); construct: expressed in transfected cells; experiment: 125NDP-α-MSH competitive binding to membranes of BHK cells expressing human MC4 receptor (filtration assay)
Positions of bridges follow the written chain, without caps; N, C: chain ends. Non-standard residues stand in square brackets, D forms with d. Residues, ends and D or L forms follow the SMILES beside them. Thz = O=C(O)[C@@H]1CSCN1
Readings of pKi for the listed compounds
Value format note: pKi is -log10 of concentration (mol/L); just state the number.

compound | measured_attribute | data_value
C[C@@H]1NC(=O)[C@H](C)NC(=O)[C@H](C)NC(=O)[C@@H]2CSSC[C@H](NC(=O)[C@H](CCCNC(=N)N)NC(=O)[C@H](C)NC1=O)C(=O)N[C@@H](C)C(=O)N[C@@H](Cc1c[nH]cn1)C(=O)N[C@H](Cc1ccccc1)C(=O)N[C@@H](CCCNC(=N)N)C(=O)N[C@@H](Cc1c[nH]c3ccccc13)C(=O)N2 [Chem. 89] (cyclo(AAAARCAH[dF]RWC); disulfide 6-12) | pKi | 10.15
C[C@@H]1NC(=O)[C@H](C)NC(=O)[C@@H]2CSSC[C@H](NC(=O)[C@H](Cc3c[nH]c4ccccc34)NC(=O)[C@H](C)NC(=O)[C@@H](Cc3ccccc3)NC1=O)C(=O)N[C@@H](C)C(=O)N[C@@H](Cc1c[nH]cn1)C(=O)N[C@H](Cc1ccccc1)C(=O)N[C@@H](CCCNC(=N)N)C(=O)N[C@@H](Cc1c[nH]c3ccccc13)C(=O)N2 [Chem. 11] (cyclo(AA[dF]AWCAH[dF]RWC); disulfide 6-12) | pKi | 9.60
C[C@@H]1NC(=O)[C@H](CCC(=O)O)NC(=O)[C@H](CCC(=O)O)NC(=O)[C@H](C)NC(=O)[C@@H]2CSSC[C@H](NC(=O)[C@H](Cc3c[nH]c4ccccc34)NC1=O)C(=O)N[C@@H](C)C(=O)N[C@@H](Cc1c[nH]cn1)C(=O)N[C@H](Cc1ccccc1)C(=O)N[C@@H](CCCNC(=N)N)C(=O)N[C@@H](Cc1c[nH]c3ccccc13)C(=O)N2 [Chem. 102] (cyclo(AEEAWCAH[dF]RWC); disulfide 6-12) | pKi | 8.00

Q: Can you look up the measured pKi of C[C@@H]1NC(=O)[C@@H]2CSSC[C@H](NC(=O)[C@H](Cc3c[nH]c4ccccc34)NC(=O)[C@H](CCCNC(=N)N)NC(=O)[C@H](Cc3ccccc3)NC(=O)[C@H](Cc3c[nH]cn3)NC1=O)C(=O)N[C@@H](C)C(=O)N[C@@H](Cc1c[nH]cn1)C(=O)N[C@@H](Cc1ccccc1)C(=O)N[C@@H](CCCNC(=N)N)C(=O)N[C@@H](Cc1c[nH]c3ccccc13)C(=O)N2 for me?
Ans: 8.74

Q: Can you look up the measured pKi of C[C@@H]1NC(=O)[C@@H]2CSSC[C@H](NC(=O)[C@H](CCCNC(=N)N)NC(=O)[C@H](CCCCN)NC(=O)[C@H](CCCCN)NC(=O)[C@H](CCCCN)NC1=O)C(=O)N1CSC[C@H]1C(=O)N[C@@H](Cc1c[nH]cn1)C(=O)N[C@H](Cc1ccccc1)C(=O)N[C@@H](Cc1c[nH]cn1)C(=O)N[C@@H](Cc1c[nH]c3ccccc13)C(=O)N2 [Chem. 100] (cyclo(AKKKRC[Thz]H[dF]HWC); disulfide 6-12) for me?
Ans: 10.40

* * *

Readings of pEC50 for the listed molecules
biological target: human MC1R (Homo sapiens); construct: expressed in transfected cells; assay: Functional cAMP assay (CisBio HTRF) in BHK cells expressing human MC1R; assay type: cell-based; conditions: BHK cells expressing human MC1R; '>' = highest dose used with no response; read-out: MC1R cAMP EC50
Sequence (Q01726 whole entry): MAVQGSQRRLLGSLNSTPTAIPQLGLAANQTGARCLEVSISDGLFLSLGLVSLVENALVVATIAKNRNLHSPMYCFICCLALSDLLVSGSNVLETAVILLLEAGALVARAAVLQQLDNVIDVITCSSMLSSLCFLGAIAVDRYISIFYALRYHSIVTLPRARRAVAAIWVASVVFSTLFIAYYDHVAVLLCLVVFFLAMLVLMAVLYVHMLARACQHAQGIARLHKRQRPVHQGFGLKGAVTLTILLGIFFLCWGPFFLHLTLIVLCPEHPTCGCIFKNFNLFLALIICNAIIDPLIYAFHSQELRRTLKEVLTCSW
pEC50: −log10 of the molar value. Positions of bridges follow the written chain, without caps; N, C: chain ends. Non-standard residues stand in square brackets, D forms with d. Residues, ends and D or L forms follow the SMILES beside them. Pip = O=C(O)[C@@H]1CCCCN1; Dab = NCC[C@H](N)C(=O)O; Aib = CC(C)(N)C(=O)O

Field: example entries. Status: answers known.
molecule | subject_of_test | pEC50
C[C@@H]1NC(=O)[C@@H]2CSSC[C@H](NC(=O)[C@H](Cc3c[nH]c4ccccc34)NC(=O)[C@H](CCCN)NC(=O)[C@@H](Cc3ccccc3)NC(=O)[C@H](Cc3c[nH]cn3)NC1=O)C(=O)N[C@@H](C)C(=O)N[C@@H](Cc1c[nH]cn1)C(=O)N[C@H](Cc1ccccc1)C(=O)N[C@@H](CCCN)C(=O)N[C@@H](Cc1c[nH]c3ccccc13)C(=O)N2 | human MC1R (Homo sapiens) | < 9.00
C[C@@H]1NC(=O)[C@@H]2CSSC[C@H](NC(=O)[C@H](Cc3c[nH]c4ccccc34)NC(=O)[C@H](CCCCN)NC(=O)[C@H](CCCCN)NC(=O)[C@H](CCCCN)NC1=O)C(=O)N1CCCC[C@H]1C(=O)N[C@@H](Cc1c[nH]cn1)C(=O)N[C@H](Cc1ccccc1)C(=O)N[C@@H](Cc1c[nH]cn1)C(=O)N[C@@H](Cc1c[nH]c3ccccc13)C(=O)N2 [Chem. 83] (cyclo(AKKKWC[Pip]H[dF]HWC); disulfide 6-12) | human MC1R (Homo sapiens) | < 8.00

Q: Can you look up the measured pEC50 of CC1(C)NC(=O)[C@@H]2CSSC[C@H](NC(=O)[C@H](Cc3c[nH]c4ccccc34)NC(=O)[C@H](CCN)NC(=O)[C@@H](Cc3ccccc3)NC(=O)[C@H](Cc3c[nH]cn3)NC1=O)C(=O)NC(C)(C)C(=O)N[C@@H](Cc1c[nH]cn1)C(=O)N[C@H](Cc1ccccc1)C(=O)N[C@@H](CCN)C(=O)N[C@@H](Cc1c[nH]c3ccccc13)C(=O)N2 [Chem. 46] (cyclo([Aib]H[dF][Dab]WC[Aib]H[dF][Dab]WC); disulfide 6-12) for me?
Ans: < 8.26

Q: Can you look up the measured pEC50 of C[C@@H]1NC(=O)[C@@H]2CSCSC[C@H](NC(=O)[C@H](Cc3c[nH]c4ccccc34)NC(=O)[C@H](CCCNC(=N)N)NC(=O)[C@@H](Cc3ccccc3)NC(=O)[C@H](Cc3c[nH]cn3)NC1=O)C(=O)N[C@@H](C)C(=O)N[C@@H](Cc1c[nH]cn1)C(=O)N[C@H](Cc1ccccc1)C(=O)N[C@@H](CCCNC(=N)N)C(=O)N[C@@H](Cc1c[nH]c3ccccc13)C(=O)N2 for me?
Ans: 8.75

Q: Can you look up the measured pEC50 of O=C(O)CC[C@@H]1NC(=O)[C@@H]2CSSC[C@H](NC(=O)[C@H](Cc3c[nH]c4ccccc34)NC(=O)[C@H](Cc3c[nH]cn3)NC(=O)[C@@H](Cc3ccccc3)NC(=O)[C@H](Cc3c[nH]cn3)NC1=O)C(=O)N[C@@H](CCC(=O)O)C(=O)N[C@@H](Cc1c[nH]cn1)C(=O)N[C@H](Cc1ccccc1)C(=O)N[C@@H](Cc1c[nH]cn1)C(=O)N[C@@H](Cc1c[nH]c3ccccc13)C(=O)N2 [Chem. 53] (cyclo(CEH[dF]HWCEH[dF]HW); disulfide 1-7) for me?
Ans: < 8.00
